Molecular target: T1, HER2ECDHis (human, UniProt P04626 23-653, biotinylated in the cross-block ELISA (sites not given))
T1 construct: range 1-653; expressed in HEK-293F; also called soluble HER2; biotinylated HER2ECDHis
Assay: ELISA; competitor 091
Examples of binders with documented % binding vs no competitor follow.

binder	% binding vs no competitor / %
HuMab 084 (antibody, V domains shown, also called TH1014-084; PC1014-084) VH: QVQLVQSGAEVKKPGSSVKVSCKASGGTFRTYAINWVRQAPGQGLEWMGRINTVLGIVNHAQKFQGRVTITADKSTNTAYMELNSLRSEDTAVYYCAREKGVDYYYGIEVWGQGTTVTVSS VL: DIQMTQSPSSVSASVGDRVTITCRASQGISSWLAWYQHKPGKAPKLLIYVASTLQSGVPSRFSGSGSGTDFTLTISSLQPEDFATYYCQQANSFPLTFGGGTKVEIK	104
HuMab 169 (antibody, V domains shown, also called TH1014-169; PC1014-169) VH: QVQLVQSGAEVKKPGASVKVSCKASGYTFTNYGISWVRQAPGQGLEWMGWLSAYSGNTIYAQKLQGRVTMTTDTSTTTAYMELRSLRSDDTAVYYCARDRIVVRPDYFDYWGQGTLVTVSS VL: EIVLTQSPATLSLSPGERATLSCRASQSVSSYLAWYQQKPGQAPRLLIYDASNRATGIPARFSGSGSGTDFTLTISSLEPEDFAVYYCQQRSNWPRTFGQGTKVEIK	105
HuMab 050 (antibody, V domains shown, also called TH1014-050; PC1014-050) VH: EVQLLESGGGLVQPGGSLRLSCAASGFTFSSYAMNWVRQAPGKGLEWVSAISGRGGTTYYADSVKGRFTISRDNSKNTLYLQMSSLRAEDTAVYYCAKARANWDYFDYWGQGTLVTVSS VL: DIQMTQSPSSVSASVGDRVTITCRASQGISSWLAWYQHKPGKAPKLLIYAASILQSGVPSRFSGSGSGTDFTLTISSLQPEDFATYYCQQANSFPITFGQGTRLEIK	98
HuMab 025 (antibody, V domains shown, also called TH1014-025; PC1014-025) VH: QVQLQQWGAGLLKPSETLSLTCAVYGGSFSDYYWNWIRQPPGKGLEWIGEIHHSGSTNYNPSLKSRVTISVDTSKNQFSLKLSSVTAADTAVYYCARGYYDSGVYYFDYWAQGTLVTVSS VL: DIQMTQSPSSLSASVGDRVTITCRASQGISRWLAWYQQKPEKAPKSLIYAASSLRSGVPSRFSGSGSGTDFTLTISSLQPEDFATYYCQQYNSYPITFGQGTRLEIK	21
HuMab 091 (antibody, V domains shown, also called TH1014-091; PC1014-091) VH: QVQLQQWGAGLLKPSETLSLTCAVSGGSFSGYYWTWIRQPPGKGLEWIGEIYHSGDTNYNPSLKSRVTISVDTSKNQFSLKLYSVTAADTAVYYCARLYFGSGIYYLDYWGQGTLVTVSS VL: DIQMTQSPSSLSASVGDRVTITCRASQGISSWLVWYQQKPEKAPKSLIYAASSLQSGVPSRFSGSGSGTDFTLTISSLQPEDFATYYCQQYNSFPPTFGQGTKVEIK	15
